Tested on: H4
Assay comment: Luminescence Cell-Based Dose Response HTS to Identify Activators of 5'UTR Stem-Loop Driven Prion Protein mRNA Translation in H4 Neuroglioblastoma Cells. [Related pubchem assays: 1829 (Project Summary), 1814 (Primary HTS)]
Type: functional
Stated conditions: Homo sapiens
Calls of active or inactive are those of the source. No stated cut-off is given here; in the data, actives have a measured EC50 and inactives only a lower limit.
The following compounds are listed with their measured EC50 values.

O=C(O)/C=C\C(=O)Nc1ccccc1C#Cc1ccc(Br)cc1 ... 7.95 µM (active)
Clc1cccc(Cl)c1Cn1nnc(N2CCCC2)n1 ... 20.3 µM (active)
N#Cc1c(/N=C/c2cc(Br)cs2)sc2c1CCC2 ... 11.2 µM (active)

Q: Which value of EC50 has been reported for CCOC(=O)c1c(C)oc2c1c(C(c1cccnc1)N1CCOCC1)c(O)c1ccccc12 (stereo unspecified) in the records?
Result: > 120 µM (not active)

Q: Then "CC1CCN(Cc2nc(-c3ccccc3)no2)CC1" ?
Result: 25.8 µM (active)

Q: Then "Oc1[nH]c2ccccc2c1/C=N/c1ccc2c(c1)OCO2" ?
Result: 1.25 µM (active)
